assay.notes: Photostability test in glass vials not shielded from light: gelation, molecular weight, percent conjugation of MTX (Example 4(2))
Type: physicochemical
stated.conditions: additive 1 mg/ml; 4000 Lux, 25° C., not shielded from light
Please go through the items and note down their Percent Conjugation (%) of MTX, irradiation time 25 h.
Write the numeric value and append its unit.

molecule: O=C([O-])CS.[Na+] [Na thioglycolate, sodium thioglycolate]
result: 2.2%

molecule: CC(=O)N[C@@H](Cc1c[nH]c2ccccc12)C(=O)O
result: 2.2%

molecule: N[C@@H](Cc1c[nH]c2ccccc12)C(=O)O
result: 2.2%

In the following, a different molecule is considered.
## Task Please give measured Percent Conjugation (%) of MTX, irradiation time 25 h of the following entry: COC(=O)c1ccc(O)cc1 [Methyl paraben, methyl p-hydroxybenzoate]
## Result 2.0%

====

assay.notes: Photostability test with additional light-shielding film LUMICOOL 1905 (Example 6)
Format: physicochemical
stated.conditions: additive 10 mg/mL; vial wrapped with LUMICOOL 1905
Please go through the items and note down their Percent Conjugation (%), irradiation time 300 h.
Answers are plain numbers, in %.

Please review the entries below; each comes with its answer.
molecule: O=C([O-])CS.[Na+] [Na thioglycolate, sodium thioglycolate]
recorded.number: 2.2
//
molecule: O=C([O-])c1ccccc1O.[Na+] [Na salicylate, sodium salicylate]
recorded.number: 2.1

Count: 3. Required value per item: Percent Conjugation (%), irradiation time 300 h.
1. N[C@@H](Cc1c[nH]c2ccccc12)C(=O)O
2. CC(=O)N[C@@H](Cc1c[nH]c2ccccc12)C(=O)O
3. O=S([O-])([O-])=S.[Na+].[Na+] [Na thiosulfate, sodium thiosulfate]

## Result
2.2
2.2
2.1

====

assay.notes: Photostability test with additional light-shielding film LUMICOOL 1905 (Example 6)
Type: physicochemical
stated.conditions: additive 10 mg/mL; vial wrapped with LUMICOOL 1905
quantity.measured: Percent Conjugation (%), irradiation time 0 h
Numbers only, in %.

Please review the entries below; each comes with its answer.
molecule: CC(=O)N[C@@H](Cc1c[nH]c2ccccc12)C(=O)O [N-acetyltryptophan]
unit.of.measure: %
recorded.number: 2.2
//
molecule: O=S([O-])([O-])=S.[Na+].[Na+] [Na thiosulfate, sodium thiosulfate]
unit.of.measure: %
recorded.number: 2.1

Count: 3. Required value per item: Percent Conjugation (%), irradiation time 0 h.
1. O=C([O-])c1ccccc1O.[Na+] [Na salicylate, sodium salicylate]
2. N[C@@H](Cc1c[nH]c2ccccc12)C(=O)O [Tryptophan, tryptophan]
3. O=C([O-])CS.[Na+] [Na thioglycolate, sodium thioglycolate]

## Result
[2.2, 2.2, 2.1]

====

assay.notes: Photostability test with additional light-shielding film LUMICOOL 1905 (Example 6);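 further: molecular weight and drug conjugation percentage of the test conjugate, both determined by the method given for the first production procedure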
Assay type: physicochemical
stated.conditions: additive 1 mg/mL; vial wrapped with LUMICOOL 1905
quantity.measured: Percent Conjugation (%), irradiation time 150 h

compound: O=S([O-])([O-])=S.[Na+].[Na+] [Na thiosulfate, sodium thiosulfate]
result: 2.2%

compound: CC(=O)N[C@@H](Cc1c[nH]c2ccccc12)C(=O)O
result: 2.3%

compound: O=C([O-])CS.[Na+] [Na thioglycolate, sodium thioglycolate]
result: 2.2%

compound: O=C([O-])c1ccccc1O.[Na+] [Na salicylate, sodium salicylate]
result: 2.1%

compound: COC(=O)c1ccc(O)cc1 [Methyl paraben, methyl p-hydroxybenzoate]
result: 2.2%

## Task Please give measured Percent Conjugation (%), irradiation time 150 h of the following entry: N[C@@H](Cc1c[nH]c2ccccc12)C(=O)O
## Result 2.2%

Data credit: patent US9072791B2
